B1: library; numbered along this chain (parent)
chain: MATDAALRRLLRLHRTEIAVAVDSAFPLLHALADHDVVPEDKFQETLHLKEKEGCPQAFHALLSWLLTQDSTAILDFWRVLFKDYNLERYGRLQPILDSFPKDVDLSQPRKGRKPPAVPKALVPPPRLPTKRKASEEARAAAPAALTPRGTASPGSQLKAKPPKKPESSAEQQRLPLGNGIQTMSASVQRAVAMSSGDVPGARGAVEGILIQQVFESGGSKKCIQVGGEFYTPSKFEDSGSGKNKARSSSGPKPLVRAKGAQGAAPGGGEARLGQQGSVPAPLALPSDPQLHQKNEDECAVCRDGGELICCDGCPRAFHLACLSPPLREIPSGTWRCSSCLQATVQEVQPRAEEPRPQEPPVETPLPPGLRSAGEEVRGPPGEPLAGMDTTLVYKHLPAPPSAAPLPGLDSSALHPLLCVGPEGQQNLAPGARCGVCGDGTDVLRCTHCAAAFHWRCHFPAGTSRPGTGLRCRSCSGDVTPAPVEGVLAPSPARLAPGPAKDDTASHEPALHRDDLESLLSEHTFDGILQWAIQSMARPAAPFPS

variants of: B1; assay: AIRE transcriptional activation functional score (insulin promoter-GFP; nonsense median 0, synonymous median 1) (normalised score); higher = higher AIRE activity (more reporter activation); details: with insulin promoter-GFP reporter in HEK293
readout: AIRE transcriptional activation functional score

>>> meas_value("Q293T")
-0.386
>>> meas_value("Y231K")
0.204
>>> meas_value("R139N")
0.522
>>> meas_value("G313A")
0.829
>>> meas_value("K161I")
1.27
>>> meas_value("C311V")
0.86
>>> meas_value("E17N")
-0.662
>>> meas_value("A61L")
-0.166
>>> meas_value("S249M")
1.28
>>> meas_value("L516F")
1.48
>>> meas_value("G369K")
1.35
>>> meas_value("P252G")
0.0827
>>> meas_value("F543Q")
0.317
>>> meas_value("K294V")
0.546
>>> meas_value("V22E")
-1.03
>>> meas_value("D526W")
-0.427
>>> meas_value("G178F")
1.08
>>> meas_value("A493F")
1.17
>>> meas_value("L414N")
1.07
>>> meas_value("K222W")
-0.0951
>>> meas_value("I528Q")
0.209
>>> meas_value("E298M")
0.204
>>> meas_value("W335S")
1.27
>>> meas_value("V479P")
0.967
>>> meas_value("A31N")
-0.416
>>> meas_value("A144F")
1.26
>>> meas_value("T391F")
1.41
>>> meas_value("G498T")
1.09
>>> meas_value("V484E")
0.615
>>> meas_value("V118M")
1.31
>>> meas_value("K259F")
1.08
>>> meas_value("A117E")
1.03
>>> meas_value("Q69P")
0.118
>>> meas_value("G277K")
1.22
>>> meas_value("S411A")
1.04
>>> meas_value("K222T")
0.149
>>> meas_value("S250R")
0.0524
>>> meas_value("E270W")
1.36
>>> meas_value("R272D")
1.21
>>> meas_value("E207A")
-0.0187
>>> meas_value("A160P")
-0.0016
>>> meas_value("L7S")
0.248
>>> meas_value("A321K")
1.09
>>> meas_value("P497S")
0.852
>>> meas_value("S372V")
1.33
>>> meas_value("L418R")
0.67

Each recorded value in this set is attributed to the supplement of paper PMC12667976.
